Values were extracted from patent US20260092071A1.

Target: SMARCA4 (Homo sapiens, UniProt P51532)
Sequence (P51532 whole entry): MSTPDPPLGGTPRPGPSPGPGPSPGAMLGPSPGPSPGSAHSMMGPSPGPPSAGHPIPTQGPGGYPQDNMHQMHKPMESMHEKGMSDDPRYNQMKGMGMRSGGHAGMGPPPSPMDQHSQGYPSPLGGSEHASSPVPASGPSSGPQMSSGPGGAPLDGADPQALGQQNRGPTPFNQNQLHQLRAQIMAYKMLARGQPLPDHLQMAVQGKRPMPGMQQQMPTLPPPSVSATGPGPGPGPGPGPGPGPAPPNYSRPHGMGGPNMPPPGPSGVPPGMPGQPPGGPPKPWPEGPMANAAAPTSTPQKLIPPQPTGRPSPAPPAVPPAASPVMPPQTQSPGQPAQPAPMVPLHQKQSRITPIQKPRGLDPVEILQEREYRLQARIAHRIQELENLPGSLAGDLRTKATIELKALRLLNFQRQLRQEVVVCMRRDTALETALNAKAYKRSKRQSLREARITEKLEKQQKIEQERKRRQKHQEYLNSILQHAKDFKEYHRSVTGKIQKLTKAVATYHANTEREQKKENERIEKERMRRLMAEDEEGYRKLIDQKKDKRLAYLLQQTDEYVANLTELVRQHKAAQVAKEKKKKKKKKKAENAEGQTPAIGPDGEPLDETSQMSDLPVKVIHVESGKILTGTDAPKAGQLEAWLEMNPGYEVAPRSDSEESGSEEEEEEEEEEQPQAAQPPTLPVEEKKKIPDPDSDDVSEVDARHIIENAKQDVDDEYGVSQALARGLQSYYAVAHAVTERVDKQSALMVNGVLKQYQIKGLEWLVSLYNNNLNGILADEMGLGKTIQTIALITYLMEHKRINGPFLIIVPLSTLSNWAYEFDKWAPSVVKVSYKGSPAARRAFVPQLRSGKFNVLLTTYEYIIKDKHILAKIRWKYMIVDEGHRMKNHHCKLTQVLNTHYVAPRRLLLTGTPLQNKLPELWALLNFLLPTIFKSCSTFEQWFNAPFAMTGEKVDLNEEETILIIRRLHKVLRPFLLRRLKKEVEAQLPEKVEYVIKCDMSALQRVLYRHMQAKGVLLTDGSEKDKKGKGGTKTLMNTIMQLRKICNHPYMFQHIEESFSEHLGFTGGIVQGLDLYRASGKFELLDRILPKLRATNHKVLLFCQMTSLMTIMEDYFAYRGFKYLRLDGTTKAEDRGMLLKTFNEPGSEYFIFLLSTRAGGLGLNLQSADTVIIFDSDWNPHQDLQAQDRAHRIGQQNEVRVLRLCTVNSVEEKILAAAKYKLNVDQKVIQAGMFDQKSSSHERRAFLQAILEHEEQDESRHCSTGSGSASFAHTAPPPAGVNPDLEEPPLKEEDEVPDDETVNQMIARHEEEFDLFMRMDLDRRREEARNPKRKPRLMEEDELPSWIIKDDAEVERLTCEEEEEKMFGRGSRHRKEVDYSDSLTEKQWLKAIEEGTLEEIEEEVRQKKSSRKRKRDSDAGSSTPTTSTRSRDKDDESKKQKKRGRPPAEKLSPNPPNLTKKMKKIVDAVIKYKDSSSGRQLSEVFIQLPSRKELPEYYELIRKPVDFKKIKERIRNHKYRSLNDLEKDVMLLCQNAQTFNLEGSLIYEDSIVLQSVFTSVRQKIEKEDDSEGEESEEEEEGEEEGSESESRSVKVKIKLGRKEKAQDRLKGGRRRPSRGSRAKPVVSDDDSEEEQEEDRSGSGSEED
Experiment: HiBit assay in engineered HT1080 CRISPR knock-in cell, 6 hrs (B series), SMARCA4
Assay type: cell-based
Conditions: HT1080 CRISPR knock-in cells, 6 hrs incubation; read-out: SMARC A4 HT1080 HiBit DC50
parameterMeasured: DC50

{"columns": ["molecule", "parameterMeasured", "measuredValue"],
 "data": [
  ["Cc1ncsc1-c1ccc([C@H](C)NC(=O)[C@@H]2C[C@@H](O)CN2C(=O)[C@@H](NC(=O)CCCCN2CCC(c3ccc4c(c3)-n3c(nc(=O)c5c(Cl)cccc53)C4(C)C)CC2)C(C)(C)C)cc1 [Compound B50]", "DC50", "> 1000 nM"],
  ["Cc1cc(C(C(=O)N2C[C@H](O)C[C@H]2C(=O)N[C@@H](CN2CCC(N3CCC(c4cccc5c4C(C)(C)c4nc(=O)c6c(Cl)cccc6n4-5)CC3)CC2)c2ccc(-c3scnc3C)cc2)C(C)C)on1 (stereo partly drawn) [Compound B155]", "DC50", "< 100 nM"],
  ["Cc1ncsc1-c1ccc([C@H](CN2CCOCC2)NC(=O)[C@@H]2C[C@@H](O)CN2C(=O)[C@H](C(C)C)n2cc([C@H]3CC[C@H](CN4CCN(c5ccc6c(c5)-n5c(nc(=O)c7c(Cl)cccc75)C6(C)C)CC4)CC3)nn2)cc1 [Compound B129]", "DC50", "< 100 nM"],
  ["Cc1ncsc1-c1ccc([C@H](C)NC(=O)[C@@H]2C[C@@H](O)CN2C(=O)[C@H](C(C)C)n2cc(CCCN3CCC(c4ccc5c(c4)C(C)(C)c4nc(=O)c6c(Cl)cccc6n4-5)CC3)nn2)cc1 [Compound B24]", "DC50", "< 100 nM"],
  ["C[C@H](NC(=O)[C@@H]1C[C@@H](O)CN1C(=O)[C@@H](n1cc([C@H]2CC[C@H](CN3CCN(c4ccc5c(c4)-n4c(nc(=O)c6c(Cl)cccc64)C5(C)C)CC3)CC2)nn1)C(C)(C)C)c1ccc(-c2scnc2C#CCN2CCOCC2)cc1 [Compound B135]", "DC50", "< 100 nM"],
  ["Cc1ncsc1-c1ccc(CNC(=O)[C@@H]2C[C@@H](O)CN2C(=O)[C@@H](NC(=O)C2(F)CC2)C(C)(C)C)c(OCC2CCC(N3CCC(c4ccc5c(c4)-n4c(nc(=O)c6c(Cl)cccc64)C5(C)C)CC3)CC2)c1 (stereo partly drawn) [Compound B80]", "DC50", "< 100 nM"],
  ["Cc1ncsc1-c1ccc([C@H](C)NC(=O)[C@@H]2C[C@@H](O)CN2C(=O)[C@H](C(C)C)n2cc(C3CCC(c4cccc5c4C(C)(C)c4nc(=O)c6c(Cl)cccc6n4-5)CC3)nn2)cc1 (stereo partly drawn) [Compound B137]", "DC50", "< 100 nM"],
  ["C=C[C@H](NC(=O)[C@@H]1C[C@@H](O)CN1C(=O)[C@@H](NC(=O)[C@H]1CC[C@H](CN2CCC(c3ccc4c(c3)C(C)(C)c3nc(=O)c5c(Cl)cccc5n3-4)CC2)CC1)C(C)(C)C)c1ccc(-c2scnc2C)cc1 [Compound B79]", "DC50", "100 to 500 nM"],
  ["C[C@H](NC(=O)[C@@H]1C[C@@H](O)CN1C(=O)[C@@H](NC(=O)[C@H]1CC[C@H](CN2CCC(c3ccc4c(c3)C(C)(C)c3nc(=O)c5c(Cl)cccc5n3-4)CC2)CC1)C(C)(C)C)c1ccc(-c2ncnn2C)cc1 [Compound B88]", "DC50", "> 1000 nM"]
]}
